B1: CDC25B (parent)
chain: FVDILESDLKDDDAVPPGMESLIS

# Variants of: B1
# Method: protein stability index of a GFP-peptide fusion (GPS, HEK-293T) (PSI 1-6); higher = more stable;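 note: lentivirally expressed fusions sorted by FACS into six bins by GFP to DsRed ratio, PSI derived from sequencing read proportions per bin multiplied by bin number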
# Settings: c terminus: a fixed tail appended
protein stability index listing for selected variants.

Examples with their reported protein stability index follow.
{"Variant Notation": "M19V", "Endpoint Result": 3.08}
{"Variant Notation": "L5R", "Endpoint Result": 2.94}

Let us examine a further case.
What the record says about `G18A` : protein stability index is 3.03
